Tested on: A549 cells
Assay: Cytotoxicity against A549 cells, Alamar Blue
Format: cell-based
Conditions: Homo sapiens, A549, 65 h; Supplementary Table 1; compound 0.5 mM; percentage of controls (n=1)
Kindly apply the following: t if viability at 500 µM is less than 90%, f in every other case.

Data request: Confirm or reject: viability at 500 µM of OCc1ccc(-c2ccccn2)s1 [compound 556, [5‐(2‐pyridinyl)‐2‐thienyl]methanol] lies strictly below 90%
Data returned: f

Others:
Data request: Confirm or reject: viability at 500 µM of `Cc1nc(-c2ccc(N)cc2)cs1` lies strictly below 90%
Data returned: t

Data request: Same read-out for Cc1cc(C(N)=S)no1 [compound 140, 5‐methylisoxazole‐3‐carbothioamide] ?
Data returned: f

Data request: Same read-out for `O=C1CCSc2ccc(Cl)cc21` ?
Data returned: f

Data request: Same read-out for `N#CCc1nc2ccccc2s1` ?
Data returned: t

Data request: Same read-out for `NCc1ccc2sccc2c1` ?
Data returned: t

* * *

Task for the reader: assign each of the following molecules its reported viability at 500 µM.
Tested on: A549 cells
Experiment: Cytotoxicity against A549 cells, Alamar Blue
Type: cell-based
Settings: Homo sapiens, A549, 65 h; Supplementary Table 1; compound 0.5 mM; percentage of controls (n=1)
Method: Cytotoxic effects against HeLa and A549 cells were determined in a similar manner. Briefly, the cells were cultured in DMEM supplemented with 10% FCS and 2 mM L-Glutamine. Cells were plated at initial cell concentration of 2 × 10^4 cells/well and incubated with the compounds for ~65 hours prior to addition of Alamar Blue solution for a further 5 hours.
Numbers only, in %.

The following molecules have reported results that may help.
Data request: Reported viability at 500 µM, molecule `Nc1cccc(CN2CCCC2)c1` : ____
Data returned: 107

Data request: Same read-out for `COc1ccc(C#N)cn1` ?
Data returned: 125

Go through the list and state viability at 500 µM for each entry.
1. OCc1csc(-c2ccccc2)n1
2. O=C(O)C1CCNCC1
3. Cc1nc(CCN)cs1
4. N#Cc1ccc(-c2ccco2)nc1
5. OC1CCC(C(F)(F)F)CC1 (centres unmarked)

Data returned:
1. 78.4
2. 132
3. 105
4. 104
5. 114

Data request: Reported viability at 500 µM, molecule `Oc1nc2ccc(Cl)cc2o1` : ____
Data returned: 73.9

* * *

System: A549 cells
Experiment: Cytotoxicity against A549 cells, Alamar Blue
Type: cell-based
Conditions: Homo sapiens, A549, 65 h; Supplementary Table 1; compound 0.5 mM; percentage of controls (n=1)
Task for the reader: assign each of the following compounds its reported viability at 500 µM.
Answers are plain numbers, in %.

The following compounds have reported results that may help.
Data request: Reported viability at 500 µM, compound Cc1csc(N)c1C(N)=O [compound 239, 2-amino-4-methylthiophene-3-carboxamide] : ____
Data returned: 69.8

Data request: Same read-out for OCc1ccc(-c2ccccn2)cc1 [compound 490, (4‐pyrid‐2‐ylphenyl)methanol] ?
Data returned: 118

Data request: Same read-out for N#Cc1ccc(-c2ccccc2)nc1 [compound 456, 6‐phenylnicotinonitrile] ?
Data returned: 67.1

Go through the list and state viability at 500 µM for each entry.
1. Oc1ccc(SC(F)(F)F)cc1 [compound 584, 4‐[(trifluoromethyl)thio]phenol]
2. Cc1cccc(C(N)=O)c1C [compound 176, 2,3‐dimethylbenzamide]
3. Nc1ccccc1-n1cccn1 [compound 260, 2‐(1H‐pyrazol‐1‐yl)aniline]
4. OCc1ccc(-c2ccncc2)cc1 [compound 488, (4‐pyrid‐4‐ylphenyl)methanol]
5. Nc1ccc(N2CCOCC2)cc1 [compound 435, 4‐morpholinoaniline]

Data returned:
68.4
68.7
97.3
133
33.5
